Molecular target: TF on the surface of tumor cells (MDA-MB-231, HPAF-II, HCC1806, BxPC3, HCC44, PC9, H1975 and other … (UniProt P13726 33-295, limits assumed))
Assay: cell-based or functional assay
// reported Cell proliferation inhibition IC50, HCC1806 cells (MTS) per item
Endpoint label: Cell proliferation inhibition IC50, HCC1806 cells (MTS) (ng/mL)

Binder: 4-C08-FC1-MMAE (4-C08-FC1 coupled to mc-vc-MMAE) (Fc fusion, mc-vc-MMAE coupled to cysteine thiols after TCEP reduction; DAR4 about 41.8% and DAR2 about 42.7% by HIC; positions not given) DVQLVESGGGLVQPGGSLRLSCAVSGFSLSSYDMNWYRQGPGKEREWVANIHSSGGYPDYADAVKGRFTISRDNAKNMVYLQMNSLKPEDTAVYYCNLPPSRRWYKDYWGQGTQVTVSSEPKSSDKTHTCPPCPAPEFEGGPSVFLFPPKPKDTLMISRTPEVTCVVVDVSHEDPEVKFNWYVDGVEVHNAKTKPREEQYNSTYRVVSVLTVLHQDWLNGKEYKCKVSNKALPASIEKTISKAKGQPREPQVYTLPPSRDELTKNQVSLTCLVKGFYPSDIAVEWESNGQPENNYKTTPPVLDSDGSFFLYSKLTVDKSRWQQGNVFSCSVMHEALHNHYTQKSLSLSPGK
Observed measurement: 0.5
--
Binder: F1-A01-FC1-MMAE (F1-A01-FC1 coupled to mc-vc-MMAE) (Fc fusion, mc-vc-MMAE coupled to cysteine thiols after TCEP reduction; target DAR 4 (about 91% DAR4 by HIC); positions not given) EVQLVESGGGLVQAGGSLRLSCAASGRAFSAYAMGWFRQAPGKEREFVAAISWSGGSTYYADSVRGRFTISRDNTKNTVYLQMNSLKPEDTAVYYCNADSLLSLLDGSRGGPGTDSGSWGQGTQVTVSSEPKSSDKTHTCPPCPAPEFEGGPSVFLFPPKPKDTLMISRTPEVTCVVVDVSHEDPEVKFNWYVDGVEVHNAKTKPREEQYNSTYRVVSVLTVLHQDWLNGKEYKCKVSNKALPASIEKTISKAKGQPREPQVYTLPPSRDELTKNQVSLTCLVKGFYPSDIAVEWESNGQPENNYKTTPPVLDSDGSFFLYSKLTVDKSRWQQGNVFSCSVMHEALHNHYTQKSLSLSPGK
Observed measurement: 4
